target: DNA gyrase (374 kDa Gyr A2B2 subunit from Staphylococcus aureus) (Staphylococcus aureus, UniProt P0A0K8); assay: Gyrase ATPase Assay; format: biochemical; details: 10 μM concentration; ATPase assay at 30° C., 0.9 mM ATP; average of duplicate values; read-out: Gyrase Inhibitory Activity (percent inhibition)
Sequence (P0A0K8 whole entry): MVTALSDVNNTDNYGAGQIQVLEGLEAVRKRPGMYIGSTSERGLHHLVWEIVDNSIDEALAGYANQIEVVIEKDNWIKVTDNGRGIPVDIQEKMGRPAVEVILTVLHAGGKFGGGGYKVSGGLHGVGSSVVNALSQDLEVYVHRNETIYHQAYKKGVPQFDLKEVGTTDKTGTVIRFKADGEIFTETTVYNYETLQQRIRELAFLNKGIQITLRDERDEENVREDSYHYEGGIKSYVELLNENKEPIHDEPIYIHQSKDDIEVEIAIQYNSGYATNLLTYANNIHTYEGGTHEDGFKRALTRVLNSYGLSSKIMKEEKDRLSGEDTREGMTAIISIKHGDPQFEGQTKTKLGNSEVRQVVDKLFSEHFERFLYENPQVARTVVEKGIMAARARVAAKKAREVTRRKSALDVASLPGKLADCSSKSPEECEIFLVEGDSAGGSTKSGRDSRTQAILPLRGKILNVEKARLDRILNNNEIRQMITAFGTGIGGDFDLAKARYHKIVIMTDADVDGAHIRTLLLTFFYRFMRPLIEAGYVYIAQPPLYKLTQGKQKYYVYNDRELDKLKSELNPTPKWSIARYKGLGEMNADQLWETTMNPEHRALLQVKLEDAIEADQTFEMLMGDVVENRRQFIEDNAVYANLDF
Sequence (P20831 whole entry, further chain): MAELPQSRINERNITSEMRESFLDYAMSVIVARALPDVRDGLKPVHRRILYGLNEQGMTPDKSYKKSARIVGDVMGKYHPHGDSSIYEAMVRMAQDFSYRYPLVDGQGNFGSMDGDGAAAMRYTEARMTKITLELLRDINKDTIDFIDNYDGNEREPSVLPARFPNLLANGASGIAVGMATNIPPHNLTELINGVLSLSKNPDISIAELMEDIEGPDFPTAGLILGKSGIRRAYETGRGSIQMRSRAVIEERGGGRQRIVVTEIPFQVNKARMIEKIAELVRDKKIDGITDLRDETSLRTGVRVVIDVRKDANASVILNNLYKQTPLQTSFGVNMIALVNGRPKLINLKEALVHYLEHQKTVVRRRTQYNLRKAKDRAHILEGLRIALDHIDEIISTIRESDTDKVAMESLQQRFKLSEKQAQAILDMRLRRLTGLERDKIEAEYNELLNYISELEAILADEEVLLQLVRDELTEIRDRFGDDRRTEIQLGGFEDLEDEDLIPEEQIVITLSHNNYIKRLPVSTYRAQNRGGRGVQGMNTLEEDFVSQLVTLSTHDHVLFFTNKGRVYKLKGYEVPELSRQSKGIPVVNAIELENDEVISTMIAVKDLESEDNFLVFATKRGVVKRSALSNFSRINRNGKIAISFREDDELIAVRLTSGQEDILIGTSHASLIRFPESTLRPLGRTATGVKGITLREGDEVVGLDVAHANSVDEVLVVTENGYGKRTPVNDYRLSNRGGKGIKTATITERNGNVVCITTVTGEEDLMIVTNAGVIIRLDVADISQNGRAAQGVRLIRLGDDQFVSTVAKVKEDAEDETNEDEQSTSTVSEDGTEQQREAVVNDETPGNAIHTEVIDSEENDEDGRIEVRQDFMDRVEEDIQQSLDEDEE
The entries below come with measured inhibition at 10 µM values attached.

Use the examples below as a reference point.
CCNC(=O)Nc1nc2cc(-c3cnc(N4CCOCC4)nc3)ccc2[nH]1
> 75%
CCOC(=O)Nc1nc2cc(-c3cccc(C(=O)OC)c3)ccc2[nH]1
50 to 75%
Nc1nc2cc(-c3ccccc3)ccc2[nH]1
< 50%
CCNC(=O)Nc1nc2cc(-c3cccnc3)c(OC)c(F)c2[nH]1
50 to 75%
CCOC(=O)Nc1nc2cc(-c3cnc(NCCN)nc3)ccc2[nH]1
> 75%

Reported inhibition at 10 µM for CCNC(=O)Nc1nc2cc(-n3cc(C(=O)NCC(C)C)cn3)ccc2[nH]1 was > 75%

Reported inhibition at 10 µM for CCNC(=O)Nc1nc2cc(-c3cnc(N)nc3)c(F)cc2[nH]1 was > 75%

###

target: DNA gyrase (374 kDa Gyr A2B2 subunit from Staphylococcus aureus) (Staphylococcus aureus, UniProt P0A0K8); assay: Gyrase ATPase Assay; format: biochemical; details: 10 μM concentration; ATPase assay at 30° C., 0.9 mM ATP; average of duplicate values; read-out: Gyrase Inhibitory Activity (percent inhibition)
The entries below come with measured inhibition at 10 µM values attached.

Reported inhibition at 10 µM for CCOC(=O)Nc1nc2cc(-c3cnc(N)nc3)ccc2[nH]1 was > 75%

Reported inhibition at 10 µM for CCNC(=O)Nc1nc2cc(-c3ccc(OC)nc3)ccc2[nH]1 was > 75%

Reported inhibition at 10 µM for CCNC(=O)Nc1nc2cc(-c3cccnc3)c(C)cc2[nH]1 was > 75%

Reported inhibition at 10 µM for CCOC(=O)Nc1nc2cc(-c3cccc(C(=O)O)c3)ccc2[nH]1 was > 75%

Reported inhibition at 10 µM for CCNC(=O)Nc1nc2cc(-c3ccc(CNC(C)=O)cc3)ccc2[nH]1 was > 75%

Reported inhibition at 10 µM for CCNC(=O)Nc1nc2cc(-c3cccc(F)c3)ccc2[nH]1 was < 50%

Reported inhibition at 10 µM for CCOC(=O)Nc1nc2cc(-c3ccccc3)ccc2[nH]1 was 50 to 75%

Reported inhibition at 10 µM for CCOC(=O)Nc1nc2cc(-c3cccs3)ccc2[nH]1 was 50 to 75%

Reported inhibition at 10 µM for CCNC(=O)Nc1nc2cc(-c3ccccc3O)ccc2[nH]1 was > 75%

Reported inhibition at 10 µM for CCOC(=O)Nc1nc2cc(-c3ccc(OC)nc3)ccc2[nH]1 was > 75%

###

target: DNA gyrase (374 kDa Gyr A2B2 subunit from Staphylococcus aureus) (Staphylococcus aureus); test: Gyrase ATPase Assay; assay type: biochemical; conditions: 10 μM concentration; ATPase assay at 30° C., 0.9 mM ATP; average of duplicate values; read-out: Gyrase Inhibitory Activity (percent inhibition)
The entries below come with measured inhibition at 10 µM values attached.

CCNC(=O)Nc1nc2cc(-c3cnc(NCc4ccc(F)c(Cl)c4)nc3)ccc2[nH]1
> 75%

Per the reported DNA gyrase (374 kDa Gyr A2B2 subunit from Staphylococcus aureus) (Staphylococcus aureus) data, CCNC(=O)Nc1nc2cc(-c3cnc(N4CCN(C)CC4)nc3)ccc2[nH]1 has inhibition at 10 µM of > 75%

Per the reported DNA gyrase (374 kDa Gyr A2B2 subunit from Staphylococcus aureus) (Staphylococcus aureus) data, O=C(Nc1nc2cc(-c3cccnc3)ccc2[nH]1)NC1CC1 has inhibition at 10 µM of 50 to 75%

Per the reported DNA gyrase (374 kDa Gyr A2B2 subunit from Staphylococcus aureus) (Staphylococcus aureus) data, O=C(Nc1nc2cc(-c3cccnc3)ccc2[nH]1)NC1CCCC1 has inhibition at 10 µM of < 50%

Per the reported DNA gyrase (374 kDa Gyr A2B2 subunit from Staphylococcus aureus) (Staphylococcus aureus) data, CCCN(CC1CC1)c1ncc(-c2ccc3[nH]c(NC(=O)NCC)nc3c2)cn1 has inhibition at 10 µM of > 75%

Per the reported DNA gyrase (374 kDa Gyr A2B2 subunit from Staphylococcus aureus) (Staphylococcus aureus) data, CCNC(=O)Nc1nc2cc(-c3cccnc3)cc(OC)c2[nH]1 has inhibition at 10 µM of > 75%

Per the reported DNA gyrase (374 kDa Gyr A2B2 subunit from Staphylococcus aureus) (Staphylococcus aureus) data, CCNC(=O)Nc1nc2cc(-c3cnc(NC(C)COC)nc3)c(OC)cc2[nH]1 (stereo not drawn) has inhibition at 10 µM of > 75%

Per the reported DNA gyrase (374 kDa Gyr A2B2 subunit from Staphylococcus aureus) (Staphylococcus aureus) data, CCOC(=O)Nc1nc2cc(-c3cccc(OCC)c3)ccc2[nH]1 has inhibition at 10 µM of 50 to 75%
